- assay system: Dickkopf-related protein 1 (Homo sapiens) (UniProt O94907)
- Sequence (O94907 whole entry, looked up): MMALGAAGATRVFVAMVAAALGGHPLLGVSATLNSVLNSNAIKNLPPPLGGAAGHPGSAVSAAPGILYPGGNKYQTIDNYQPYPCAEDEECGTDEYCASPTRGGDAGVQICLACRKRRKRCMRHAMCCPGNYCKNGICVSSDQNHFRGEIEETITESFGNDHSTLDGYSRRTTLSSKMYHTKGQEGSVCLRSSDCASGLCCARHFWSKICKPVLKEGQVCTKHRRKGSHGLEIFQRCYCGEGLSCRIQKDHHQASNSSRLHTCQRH
- assay protocol: small molecules binding DKK1 protein – biochemical, small-molecule microarray, 635 nm fluorescence scan, primary screen (AID 1106);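 also: score merges emission near 667 nm with signal to noise over three replicate slides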
- condition parameters: higher = more signal
# label = bin(measured composite z-score), where bins are label 0 (below -0.2), label 1 (-0.2 to below 0.2), label 2 (0.2 or more)

Past entries and their recorded results:
>>> label_value("COC(=O)[C@@]1(Cc2ccccc2)[C@H]2c3cc(C(=O)N(C)C)n(Cc4ccccc4)c3C[C@H]2CN1C(=O)c1ccccc1")
"label 0"
>>> label_value("CCOC(=O)C[C@H]1[C@H](OC(=O)c2ccc(C(=O)c3ccccc3)cc2)[C@@H](NC(=O)c2ccc3ccccc3n2)c2cc(OCCCO)ccc2N1C(=O)c1ccc2ccccc2n1")
"label 1"

Exercise: State the class of the compound shown: C=CCC(OC(C)=O)[C@@H]1[C@@H](N(Cc2ccc(-c3cccc(C(F)(F)F)c3)o2)C(=O)Cc2ccc(OC)cc2)c2cc(OCCCO)ccc2N1C(=O)Cc1ccc(OC)cc1 (some centres not stated)
Solution: label 0

Exercise: State the class of the compound shown: CN(C)CCCCCCNC(=O)[C@@H]1C[C@@H]2C(=O)N[C@@H](Cc3ccccc3)C(=O)N2[C@@H]1c1cccc(OCCO)c1
Solution: label 2

Exercise: State the class of the compound shown: CC(C)[C@H]1COC(=O)N1C(=O)[C@H]1[C@@H](c2ccccc2)N(c2ccccc2)O[C@@H]1C
Solution: label 2

Exercise: State the class of the compound shown: C=CCC(OC(C)=O)[C@@H]1[C@@H](N(Cc2cc3ccccc3o2)C(=O)c2ccc(C)cc2)c2cc(OCCCO)ccc2N1C(=O)c1ccc(-c2ccccc2)cc1 (some centres not stated)
Solution: label 1

Exercise: State the class of the compound shown: COC(=O)C(CC#Cc1ccc2c(c1)[C@]1(C(=O)N2)[C@H](C(=O)N2CCCCCCC2)[C@H]2C(=O)O[C@H](c3ccccc3)[C@H](c3ccccc3)N2[C@@H]1c1ccccc1OCCO)C(=O)OC
Solution: label 2
